Cyno T-cell Binding 2 uM (MFI) reference
molecular target: T1, cynomolgus monkey CD8A on primary cynomolgus monkey CD8+ T cells (cynomolgus monkey, UniProt P01732 23-235 (human entry)); assay: flow cytometry, cyno CD8+ T cells, 2 uM FN3
T1 construct: also called Cyno CD8alpha
T1 sequence (P01732 other isoform, or with tags, fused parts or gaps limits assumed): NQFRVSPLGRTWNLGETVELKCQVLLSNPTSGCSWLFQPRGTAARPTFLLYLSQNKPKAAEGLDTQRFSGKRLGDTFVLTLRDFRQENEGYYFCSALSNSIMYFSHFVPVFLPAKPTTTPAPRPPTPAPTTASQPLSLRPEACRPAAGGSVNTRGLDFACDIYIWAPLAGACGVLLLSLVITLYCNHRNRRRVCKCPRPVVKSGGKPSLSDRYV
API: value field is a number in MFI; no unit string.

Observe how each entry below is paired with its result.
Exercise: Cyno T-cell Binding 2 uM (MFI) lookup needed for P282DR9P1359_A7 (designed binder, FN3 domain) LPAPKNLVVSRVTEDSARLSWTAPDAAFDSFRIGYPELEKLGYGEAIVLTVPGSERSYDLTGLKPGTEYWVIIWGVKGGENSWPLSAIFTT , thanks.
Solution: 83900

Exercise: Name the recorded Cyno T-cell Binding 2 uM (MFI) for P282FR9P1361_F1 (designed binder, FN3 domain) LPAPKNLVVSRVTEDSARLSWTAPDAAFDSFGIWYAEYGYSGEAIVLTVPGSERSYDLTGLKPGTEYDVAIWGVKGGVRSYPLSAIFTT .
Solution: 9870

Exercise: I have this binder here, P282DR9P1359_E3 (designed binder, FN3 domain) LPAPKNLVVSRVTEDSARLSWTAPDAAFDSFAIAYPELPLGGEAIVLTVPGSERSYDLTGLKPGTEYFVIIYGVKGGVESFPLSAIFTT , and I need its recorded Cyno T-cell Binding 2 uM (MFI).
Solution: 52400

Exercise: Could you share which Cyno T-cell Binding 2 uM (MFI) value was measured for P282FR9P1361_H5 (designed binder, FN3 domain) LPAPKNLVVSRVTEDSARLSWTAPDAAFDSFDIWYAEYGYPGEAIVLTVPGSERSYDLTGLKPGTEYDVAISGVKGGPRSYPLSAIFTT ?
Solution: 11800

New cases:
Exercise: Param item = P282FR9P1361_C7 (designed binder, FN3 domain) LPAPKNLVVSRVTEDSARLSWTAPDAAFDSFGIWYHEYGGDGEAIVLTVPGSERSYDLTGLKPGTEYDVAIWGVKGGDVSYPLSAIFTT ; retrieve measured Cyno T-cell Binding 2 uM (MFI).
Solution: 11600
